- measurement protocol: protein stability index of a GFP-peptide fusion (yeast GPS) (PSI 1-4); higher = more stable; sorted into four equal gates, so the index is relative within each strain
- test settings: doa10∆
Classification field: 1 (yes) = protein stability index at or over 3; 0 (no) = protein stability index under 3.

seq text: IQSSLMTNLTYFLHLSV [YCS4]
assigned label: 0 (no)
--
seq text: EDARRNPNPSSQRAQVV [RPC37]
assigned label: 1 (yes)
--
seq text: DTFELIKTFLVDLTSSN [YDL116W/NUP84]
assigned label: 0 (no)
--
seq text: SFDEWFNTPFANTGGQD [SNF2]
assigned label: 0 (no)
--
seq text: SVDDVLSALDHIGHSAL [DPB4]
assigned label: 1 (yes)

Is it the case that TFPVGRVHRLLRRGNYA [HTA1] has protein stability index reaching or exceeding 3?
0 (no)

Is it the case that DPFFAQSEDLSHAVEFF [YML103C/NUP188] has protein stability index reaching or exceeding 3?
1 (yes)

Is it the case that NDNYSSDMENDNLLLNL [REC8] has protein stability index reaching or exceeding 3?
0 (no)

Is it the case that GKETIARVTGGMKVKAD [RPS14B] has protein stability index reaching or exceeding 3?
0 (no)

Is it the case that DIYMHDVNSASKSESDS [RRP4] has protein stability index reaching or exceeding 3?
1 (yes)

Is it the case that LAYAVLGIALIALGEDI [RPN1] has protein stability index reaching or exceeding 3?
0 (no)

Is it the case that LDPSLRAPIYHSKFRSS [YML031W/NDC1] has protein stability index reaching or exceeding 3?
0 (no)

Is it the case that EVGMKVQSGQIYINKSV [RET1] has protein stability index reaching or exceeding 3?
0 (no)

Is it the case that TSSAPAQNQGMFGAKPA [YGL172W/NUP49] has protein stability index reaching or exceeding 3?
0 (no)

Is it the case that AEEVRNFALTTLIDLVK [ECM29] has protein stability index reaching or exceeding 3?
0 (no)

Is it the case that VNITKFSKFERSKSSHK [SKI6] has protein stability index reaching or exceeding 3?
0 (no)

Is it the case that GIKVSLLGIFDDIFIPQ [RPC25] has protein stability index reaching or exceeding 3?
0 (no)

Is it the case that GDNEYITLRTSGELLQG [MCD1] has protein stability index reaching or exceeding 3?
1 (yes)

Is it the case that KSLGGGAALKDIEIVRV [FAS2] has protein stability index reaching or exceeding 3?
0 (no)

Is it the case that DVKVSISHDDLQAVAVA [FAS2] has protein stability index reaching or exceeding 3?
0 (no)

Is it the case that IKSQYYSRISKLKQLLD [YIL149C/MLP2] has protein stability index reaching or exceeding 3?
0 (no)
